System: UACC-62 melanoma
Test: NCI-60 one-dose screen, 48 h
Settings: 10 µM unless noted
Procedure: Growth inhibition of the UACC-62 human tumor cell line is measured as a screen for anti-cancer activity. Cells are grown in 96 well plates and exposed to the test compound for 48 hours. Compounds are tested at a single concentration, which is 10^-5 M for most compounds. The reported endpoint is percent growth (GI% or GIPRCNT), where numbers from 0 - 100% represent growth inhibition, and numbers from -100% - 0 represent cell death. For example, a value of 40 represents 60% growth inhibition. […]
The panel holds about 83,000 compounds, 20% with a hit somewhere; the sample as a whole holds those more often. The source made the active and inactive calls. The calls were made as follows: active = growth percent below 10; inactive = the rest.
Hi there, use one of these labels in your reply, thanks! active, inactive

INSERT INTO measurements (compound, group) VALUES
  ('CN1CCN(c2ccc3nc(-c4ccc5nc(-c6ccc(C(F)(F)F)cc6)[nH]c5c4)[nH]c3c2)CC1', 'inactive');

Please turn your attention to the following entry.
Could you please tell me the result logged for COc1ccc(OC)c2ncccc12 in this assay? inactive

---

tested on: NCI-H460 lung; assay: NCI-60 one-dose screen, 48 h (100 = growth as untreated, 0 = no growth, -100 = all killed); conditions: 10 µM unless noted
About 83,000 compounds went through this panel and 20% of them were active in at least one assay; those are over-represented in the sample as a whole.
quantity: growth (%)
Answer in %, number only, no unit symbol.

INSERT INTO measurements (compound, endpoint_result) VALUES
  ('Nc1cc(Br)c(-c2nnc(CCC(=O)c3nc4ccccc4[nH]3)o2)c(Br)c1', 102),
  ('CN1CCc2c(Sc3ccc(C(=O)NO)cc3)c3ccccc3n2C1', 40.3),
  ('CCOC(=O)C1=C(C)N2C(=NC3=C(CCCC/C3=C\c3ccccc3)C2c2ccccc2)S1 (stereo unspecified)', 99.1),
  ('COc1cc(/C=N/NC(=O)c2cnn3c2NC(c2ccccc2)C3)ccc1OC1CCCC1 (stereo unspecified)', 2.88);

Report growth on NCI-H460 lung for this entry: COc1ccc(NC(=O)c2ccc3c(c2)nc(-c2ccc(Cl)cc2)n3-c2cc(C(C)(C)C)[nH]n2)cc1 101

Report growth on NCI-H460 lung for this entry: O=C1CCC(N2C(=O)c3cccc(NCCOCCOCCNC(=O)c4cc5c(o4)C(=O)c4ccccc4C5=O)c3C2=O)C(=O)N1 (stereo unspecified) -81.3

Report growth on NCI-H460 lung for this entry: CSC1=CC(=O)c2ccccc2C1=O 95.6

Report growth on NCI-H460 lung for this entry: NC(=O)c1cccc(-n2ccc3cc(NC(=O)Nc4ccc(Cl)c(Cl)c4)ccc32)n1 75.4

Report growth on NCI-H460 lung for this entry: COc1cc2cc(Oc3ccc(NC(=O)Nc4ccc(Cl)c(C(F)(F)F)c4)cc3)c(C)nc2cc1OCCN1CCCCC1 -82

Report growth on NCI-H460 lung for this entry: CN([N-]C(=O)CC(=O)[N-]N(C)C(=S)c1ccccc1)C(=S)c1ccccc1.[Cu+2] -35.4

---

Measured growth, listed per entry.
Tested on: HCT-116 colon
Assay: NCI-60 one-dose screen, 48 h (100 = growth as untreated, 0 = no growth, -100 = all killed)
Settings: 10 µM unless noted
Description: Growth inhibition of the HCT-116 human tumor cell line is measured as a screen for anti-cancer activity. Cells are grown in 96 well plates and exposed to the test compound for 48 hours. Compounds are tested at a single concentration, which is 10^-5 M for most compounds. The reported endpoint is percent growth (GI% or GIPRCNT), where numbers from 0 - 100% represent growth inhibition, and numbers from -100% - 0 represent cell death. For example, a value of 40 represents 60% growth inhibition. […]
The panel holds about 83,000 compounds, 20% with a hit somewhere; the sample as a whole holds those more often.
Answer in %, number only, no unit symbol.

Worked cases, answers included:
INSERT INTO assay_data (molecule, endpoint_result) VALUES
  ('CCOC(=O)c1c(-c2cc(OC)c(OC)c(OC)c2)csc1N', 90.4),
  ('CCCCNNC(=O)c1ccc(Br)cc1', 19.5);

Supply growth value. Item: ONc1nc(NO)c2[nH]cnc2n1 46.8

Supply growth value. Item: O=C1NC(=O)C2(CCCC2C(=O)O)N1 (stereo not given) 98.4

Supply growth value. Item: COc1ccc(-c2nc3sc(C)cn3c2/C=C/C(=O)c2cc(OC)c(OC)c(OC)c2)cc1 42.1

Supply growth value. Item: O=S(=O)(/N=C1C=C/C(=N\S(=O)(=O)c2ccccc2)c2ccccc2\1)c1ccccc1 94.5

Supply growth value. Item: COc1cccc(Nc2nc(NCCO)c3ccccc3n2)c1 72.1

Supply growth value. Item: O=C1CCC(N2Cc3c(C#CCCCNC(=O)c4cc5c(o4)C(=O)c4ccccc4C5=O)cccc3C2=O)C(=O)N1 (stereo not given) -25.5

Supply growth value. Item: CCCCC/C=C\C/C=C/CCCCCCCCNC(=O)Nc1ccc([N+](=O)[O-])cc1 40

Supply growth value. Item: CCOC(=O)c1[nH]c2cc(Cl)ccc2c1[C@@H](C(=O)NC(C)(C)C)N(CC)C(=O)CCCCC#Cc1cccc2c1CN(C1CCC(=O)NC1=O)C2=O (stereo not given in full) 24.6
